Biological target: human ether-à-go-go-related gene (hERG) potassium channel (human, UniProt Q12809)
Sequence (Q12809 whole entry, looked up): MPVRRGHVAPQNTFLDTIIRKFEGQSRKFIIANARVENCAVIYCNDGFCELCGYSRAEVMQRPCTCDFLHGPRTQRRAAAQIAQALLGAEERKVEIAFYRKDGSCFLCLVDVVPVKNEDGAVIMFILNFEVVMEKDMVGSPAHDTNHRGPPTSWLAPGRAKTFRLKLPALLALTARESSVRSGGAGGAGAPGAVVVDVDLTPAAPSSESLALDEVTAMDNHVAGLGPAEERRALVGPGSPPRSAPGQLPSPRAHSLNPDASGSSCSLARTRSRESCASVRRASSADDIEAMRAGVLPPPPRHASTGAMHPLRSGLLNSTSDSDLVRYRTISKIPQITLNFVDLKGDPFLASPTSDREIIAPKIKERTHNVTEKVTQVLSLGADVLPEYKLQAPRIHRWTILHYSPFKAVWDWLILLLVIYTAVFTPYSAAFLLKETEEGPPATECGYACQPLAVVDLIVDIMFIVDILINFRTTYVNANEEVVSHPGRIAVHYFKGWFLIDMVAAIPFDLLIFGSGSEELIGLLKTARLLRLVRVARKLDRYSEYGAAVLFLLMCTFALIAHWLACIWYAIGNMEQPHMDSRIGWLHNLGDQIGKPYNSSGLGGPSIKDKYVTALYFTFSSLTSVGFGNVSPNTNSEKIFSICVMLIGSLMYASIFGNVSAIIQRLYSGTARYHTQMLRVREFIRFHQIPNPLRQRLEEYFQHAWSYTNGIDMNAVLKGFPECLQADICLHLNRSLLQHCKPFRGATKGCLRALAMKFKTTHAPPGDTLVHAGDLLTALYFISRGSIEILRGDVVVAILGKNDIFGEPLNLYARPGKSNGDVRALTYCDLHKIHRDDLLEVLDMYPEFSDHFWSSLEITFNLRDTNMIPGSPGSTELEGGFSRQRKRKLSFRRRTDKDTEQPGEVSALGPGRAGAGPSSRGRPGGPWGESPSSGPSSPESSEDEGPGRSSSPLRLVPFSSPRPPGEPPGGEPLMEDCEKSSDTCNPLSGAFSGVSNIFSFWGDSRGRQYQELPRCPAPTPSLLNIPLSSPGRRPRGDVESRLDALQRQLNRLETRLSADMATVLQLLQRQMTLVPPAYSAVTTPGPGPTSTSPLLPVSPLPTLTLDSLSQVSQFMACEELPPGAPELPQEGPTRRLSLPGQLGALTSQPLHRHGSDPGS
Test: primary screen, population patch clamp on CHO cells stably expressing hERG; higher = less effect of the substance
Experimental: Briefly, Chinese hamster ovary (CHO) cells stably expressing the hERG channel were dislodged from tissue culture flasks and dispensed into PPC plates. […] During the recording, background leak currents were estimated by a 100 ms step to -80 mV from an initial holding potential of -70 mV and subtracted from the subsequent current measurement. The campaign was conducted in two phases using slight differences in recording protocol. […]
The campaign covered roughly 310,000 compounds. About 14,000 (4.5%) showed an effect of 50% or more. The effect is printed as a negative number. This is one part of a sample in which strong results are shown more often than they occur.
valueKind: hERG current change (%, negative = inhibition) at 10uM (%)
Supply the numeric figure in %, leaving out any unit text.

Consider the following illustrative entries.
- Cc1c(C(=O)NCc2ccccc2CN2CCCC2)oc2c(F)cccc12: -70.5
- COc1ccc(O[C@H]2C=C[C@@H](c3ccccc3)O[C@@H]2CO/N=C(\C)CCN2CCc3nc(-c4ccccc4)c(-c4ccccc4)cc3C2)cc1: 6.94
- CCN(C(=O)COC(=O)C1=COCCO1)c1ccccc1: -2.33
- CCOC(=O)N1CCC(N2Cc3cccc(C(=O)Nc4ccc(OCC)cc4)c3C2=O)CC1: 9.07

Kindly note the recorded hERG current change (%, negative = inhibition) at 10uM for CCN(CC)S(=O)(=O)c1ccc(NC(=O)c2cc(C(=O)OC)cc([N+](=O)[O-])c2)cc1 , which is 10.3

Kindly note the recorded hERG current change (%, negative = inhibition) at 10uM for CCOC(=O)N1CCC(N2Cc3cccc(C(=O)Nc4cc(F)ccc4F)c3C2=O)CC1 , which is -23.1

Kindly note the recorded hERG current change (%, negative = inhibition) at 10uM for CCOC(=O)N1CCC(N2Cc3cccc(C(=O)NCc4ccc5c(c4)OCO5)c3C2=O)CC1 , which is -19.5

---

Each entry below carries its reported hERG current change (%, negative = inhibition) at 10uM.
Biological target: human ether-à-go-go-related gene (hERG) potassium channel (human)
Assay: primary screen, population patch clamp on CHO cells stably expressing hERG; higher = less effect of the substance
In all, about 310,000 compounds went through this assay and about 14,000 (4.5%) showed an effect of 50% or more. Effects have a minus sign here. The sample holds strong results, similar compounds and a random draw of the others, so the mix is not that of the screen.
Supply the numeric figure in %, leaving out any unit text.

Consider the following illustrative entries.
- CCOC(=O)C1(CCOc2ccccc2)CCN(Cc2ccc3c(c2)OCCO3)CC1: -73.3
- COc1cccc(Nc2ncnc3sc(C)cc23)c1.Cl: -8.64
- C=CCN(C(=O)C1CC(=O)N(C2CCCC2)C1)c1nc(-c2ccc(S(C)(=O)=O)cc2)cs1 (stereo not drawn): -47.1
- O=C(Cc1ccc([N+](=O)[O-])cc1)N/N=C/c1ccco1: -15.3
- O=C(Cc1ccc([N+](=O)[O-])cc1)N/N=C/c1ccc([N+](=O)[O-])o1: -64.7

Summary: COCCN(CCOC)c1nc(-c2ccc(Cl)cc2)nc2ccccc12 , human ether-à-go-go-related gene (hERG) potassium channel (human), hERG current change (%, negative = inhibition) at 10uM = -5.82

Summary: Cc1ccc(NC(=O)CN2CCN(CCN=CC3=C(O)CC(c4ccc(C)cc4)CC3=O)CC2)cc1 (stereo not drawn) , human ether-à-go-go-related gene (hERG) potassium channel (human), hERG current change (%, negative = inhibition) at 10uM = -45.3

Summary: Cc1ccc(-n2ncc3c2ncn2c(C)nnc32)cc1C , human ether-à-go-go-related gene (hERG) potassium channel (human), hERG current change (%, negative = inhibition) at 10uM = -10.5

Summary: CCOC(=O)c1ccc(NC(=O)CCc2nnc3ccc(N4CCCC4)nn23)cc1 , human ether-à-go-go-related gene (hERG) potassium channel (human), hERG current change (%, negative = inhibition) at 10uM = 5.84

Summary: O=C(N/N=C/c1ccc([N+](=O)[O-])o1)C1CCCC1 , human ether-à-go-go-related gene (hERG) potassium channel (human), hERG current change (%, negative = inhibition) at 10uM = 10.6

---

Molecular target: human ether-à-go-go-related gene (hERG) potassium channel (human, UniProt Q12809);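 further: peak tail current of the secondary pulse compared with the same well before compound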
Test: primary screen, population patch clamp on CHO cells stably expressing hERG; higher = less effect of the substance
About 14,000 (4.5%) of roughly 310,000 compounds showed an effect of 50% or more. Effects have a minus sign here. This is one part of a sample in which strong results are shown more often than they occur.
valueKind: hERG current change (%, negative = inhibition) at 10uM
Remember to quote the unit after the number.

Consider the following illustrative entries.
• C=CCOc1ccc(-c2nc3c(c(=O)[nH]c(=O)n3CCC)n2CCCC)cc1 = -5.34%
• CSc1ccc(CCNC(=O)C2CCCN(c3ncnc4c3nc3n4CCCCC3)C2)cc1 (centres unmarked) = -61.8%
• Cc1cc(NC(=O)c2noc3c2CCc2ccccc2-3)no1 = 11%

Kindly note the recorded hERG current change (%, negative = inhibition) at 10uM for NC(=O)N1N=C2/C(=C/c3ccccc3)CCCC2C1c1ccccc1 (centres unmarked) , which is -17.1%

Kindly note the recorded hERG current change (%, negative = inhibition) at 10uM for CCOc1ccc(CCNC(=O)C2CCCN(c3ncnc4c3nc3n4CCCCC3)C2)cc1 (centres unmarked) , which is -58.6%

Kindly note the recorded hERG current change (%, negative = inhibition) at 10uM for CCCCn1c(=O)[nH]c(=O)c2c1nc(-c1ccc(-c3ccc(F)cc3)o1)n2C , which is -55%

Kindly note the recorded hERG current change (%, negative = inhibition) at 10uM for O=C1CCC(C(=O)OCC(=O)N2N=C3/C(=C/c4ccccc4)CCCC3C2c2ccccc2)N1 (centres unmarked) , which is -70.3%

Kindly note the recorded hERG current change (%, negative = inhibition) at 10uM for Cc1ccc(-c2cc(C(F)(F)F)n3nc(C(=O)Nc4c(C)n(C)n(-c5ccccc5)c4=O)cc3n2)cc1 , which is -14.3%

Kindly note the recorded hERG current change (%, negative = inhibition) at 10uM for Cc1c(NC(=O)c2noc3c2CCc2ccccc2-3)c(=O)n(-c2ccccc2)n1C , which is -52.9%

Kindly note the recorded hERG current change (%, negative = inhibition) at 10uM for O=C(Nn1cnc2ccccc2c1=O)c1ccccc1 , which is 12.7%

---

Molecular target: human ether-à-go-go-related gene (hERG) potassium channel (human, UniProt Q12809);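 further: peak tail current of the secondary pulse compared with the same well before compound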
Test: primary screen, population patch clamp on CHO cells stably expressing hERG; higher = less effect of the substance
About 14,000 (4.5%) of roughly 310,000 compounds showed an effect of 50% or more. The effect is printed as a negative number. Many of the other results were omitted from the sample, so strong results are more common in it than they were.
valueKind: hERG current change (%, negative = inhibition) at 10uM (%)
Supply the numeric figure in %, leaving out any unit text.

Kindly note the recorded hERG current change (%, negative = inhibition) at 10uM for CN(C)S(=O)(=O)Nc1cccc(-c2cn3c(n2)SCC3)c1 , which is 11.2

Kindly note the recorded hERG current change (%, negative = inhibition) at 10uM for CCCSc1nnc(-c2cccc(S(=O)(=O)N(C)C)c2)n1-c1cc(OC)ccc1OC , which is -68.2

---

Each entry below carries its reported hERG current change (%, negative = inhibition) at 10uM.
Molecular target: human ether-à-go-go-related gene (hERG) potassium channel (human);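 further: peak tail current of the secondary pulse compared with the same well before compound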
Assay: primary screen, population patch clamp on CHO cells stably expressing hERG; higher = less effect of the substance
Hit rate of the full screen: of about 310,000 compounds, about 14,000 (4.5%) showed an effect of 50% or more. Effects have a minus sign here. For the sample, strong results were picked, then their nearest neighbours and some compounds at random.
Supply the numeric figure in %, leaving out any unit text.

• COc1ccc(-c2cc(C#N)nc(N3CCNCC3)n2)cc1 = -79.3
• Cc1ccc(-c2ccc(=O)n(CCC(=O)N3CCC4(CC3)OCCO4)n2)cc1 = -64.5

Summary: COc1ccc(-c2cc(C#N)nc(N3CCN(C)CC3)n2)cc1 , human ether-à-go-go-related gene (hERG) potassium channel (human), hERG current change (%, negative = inhibition) at 10uM = -42.5

Summary: Cc1ccc(C2=NN(CCC(=O)N3CCC4(CC3)OCCO4)C(=O)CC2)cc1 , human ether-à-go-go-related gene (hERG) potassium channel (human), hERG current change (%, negative = inhibition) at 10uM = -57.5

Summary: CCOc1ccc(CN2CCNC(=O)C2CC(=O)NC2CCOCC2)cc1 (stereo not shown) , human ether-à-go-go-related gene (hERG) potassium channel (human), hERG current change (%, negative = inhibition) at 10uM = -44.7

---

Target: human ether-à-go-go-related gene (hERG) potassium channel (human);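 further: peak tail current of the secondary pulse compared with the same well before compound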
Test: primary screen, population patch clamp on CHO cells stably expressing hERG; higher = less effect of the substance
Hit rate of the full screen: of about 310,000 compounds, about 14,000 (4.5%) showed an effect of 50% or more. The effect is printed as a negative number. The list comes from a sample in which strong results are over-represented; it also holds close analogues and randomly drawn compounds.
valueKind: hERG current change (%, negative = inhibition) at 10uM (%)
Supply the numeric figure in %, leaving out any unit text.

• CCN1CCN(c2c(Cl)cccc2NC(=O)c2ccc([N+](=O)[O-])o2)CC1 = -73.9
• CN(C)S(=O)(=O)c1ccc(N2CCCC2)c(C(=O)Nc2ccccc2OC(F)F)c1 = -54.2
• O=C(NC(=S)Nc1cccc(Cl)c1N1CCCCC1)c1cccs1 = 22.7
• CCN1CCN(c2c(Cl)cccc2NC(=O)c2ccc(Br)o2)CC1 = -73.6
• COc1ccc(CNC(=O)COC(=O)c2ccco2)cc1 = 28.3

Kindly note the recorded hERG current change (%, negative = inhibition) at 10uM for CCOC(=O)C1CCN(C(=O)CSc2cc(=O)n(CC)c3ccccc23)CC1 , which is -29.4

Kindly note the recorded hERG current change (%, negative = inhibition) at 10uM for O=C(Nc1cccc(Cl)c1N1CCCC1)c1ccc(Br)o1 , which is -5.58

Kindly note the recorded hERG current change (%, negative = inhibition) at 10uM for CN(C)S(=O)(=O)c1ccc(N2CCCC2)c(C(=O)Nc2ccc(F)cc2F)c1 , which is -33.2

Kindly note the recorded hERG current change (%, negative = inhibition) at 10uM for N#C/C(=C\c1ccccc1)C(=O)Nc1ccccn1 , which is 12.7

Kindly note the recorded hERG current change (%, negative = inhibition) at 10uM for CCN1CCN(c2c(Cl)cccc2NC(=O)c2cccs2)CC1 , which is -73.8

Kindly note the recorded hERG current change (%, negative = inhibition) at 10uM for C/C(=N\NC(=O)CC(C)C)c1ccc(Cl)c(Cl)c1 , which is 30.7

Kindly note the recorded hERG current change (%, negative = inhibition) at 10uM for O=S(=O)(NC1CCCCC1N1CCCCC1)c1ccc(Cl)cc1 (stereo not drawn) , which is -5.16

Kindly note the recorded hERG current change (%, negative = inhibition) at 10uM for CCCN1CCN(C2CCCCC2NS(=O)(=O)c2ccccc2)CC1 (stereo not drawn) , which is -44.7

Kindly note the recorded hERG current change (%, negative = inhibition) at 10uM for CCCN1CCN(C2CCCCC2NS(=O)(=O)c2ccc(Cl)cc2)CC1 (stereo not drawn) , which is -63.4

Kindly note the recorded hERG current change (%, negative = inhibition) at 10uM for CN1CCN(C2CCCCC2NS(=O)(=O)c2ccc(Cl)cc2)CC1 (stereo not drawn) , which is -29.8

Kindly note the recorded hERG current change (%, negative = inhibition) at 10uM for CCN(Cc1ccccc1)C(=O)c1oc2ccc(S(=O)(=O)N3CCOCC3)cc2c1C , which is -6.06
